Reference source for all entries: PubChem BioAssay (NCI)

Tested on: HCC-2998 colon
EXPERIMENTAL DETAILS: NCI tumour cell line growth inhibition, 48 h
TGI for assorted molecules

| MOLECULE | TESTED SYSTEM | TGI |
| --- | --- | --- |
| COc1ccc(C2CC(c3ccc4ccccc4c3)=NN2/C=C2\SC(=S)N(NC(=O)Cc3ccccc3Nc3c(Cl)cccc3Cl)C2=O)cc1 (stereo unspecified) | HCC-2998 colon | > 33.3 µM |
| C/C(=N\NC(=O)C[n+]1ccccc1)c1sc(-c2nc(C)c(/C(C)=N/NC(=O)C[n+]3ccccc3)s2)nc1C | HCC-2998 colon | > 100 µM |
| Cc1cc(Cl)ccc1NC(=O)C1C(=O)C(=O)N(c2ccc(Cl)cc2C)C1=O (stereo unspecified) | HCC-2998 colon | > 100 µM |
| CC(=O)CC(=O)ON(C)C(C)=O | HCC-2998 colon | > 100 µM |
| COc1c(C(=O)/C(=N/Nc2cccc(Cl)c2)C(C)=O)c(O)c(OC)c2occc12 | HCC-2998 colon | > 100 µM |

# next molecule below
Problem: Find the recorded TGI belonging to NNC(=O)C(O)C(O)C(O)CO (stereo unspecified) and report it.
Solution: > 100 µM

----------
Test system: SN12C renal
EXPERIMENTAL DETAILS: NCI tumour cell line growth inhibition, 48 h
Below, each entry is listed with its recorded TGI.

Problem: Quick one: TGI for CC(=O)O[C@H]1C[C@H]2[C@@H]([C@H](OC(C)=O)C[C@@H]3CC4(CC[C@@]32C)OOC2(CCCCC2)OO4)[C@@H]2CC[C@H]([C@H](C)CCC(N)=O)[C@@]12C ?
Solution: 5.5 µM

----------
System: MDA-MB-435
EXPERIMENTAL DETAILS: NCI tumour cell line growth inhibition, 48 h
MEASURED ENDPOINT: TGI

Record excerpt, results attached:
| COMPOUND | TGI |
| --- | --- |
| CN(Cc1ccccc1)c1ncnc2ccc(Br)cc12 | 16.6 µM |
| Nc1nc(N)c2c(CCc3ccc(C(=O)N[C@@H](CCC(=O)O)C(=O)O)cc3)ccnc2n1 | > 100 µM |

Problem: Kindly state the measured TGI obtained for O=C1C(=Cc2cccc(Cl)c2)N=C(c2ccccc2)N1n1c(-c2ccccc2)nc2ccccc2c1=O with MDA-MB-435.
Solution: > 100 µM

----------
Below is a list of entries, each paired with its recorded TGI value.
Test system: RPMI-8226 leukemia
EXPERIMENTAL DETAILS: NCI tumour cell line growth inhibition, 48 h

| SMILES CODE | MEASURED ENDPOINT | MEASUREMENT |
| --- | --- | --- |
| CCOc1ccccc1NC(=O)CSc1nnc(Cc2ccccc2)o1 | TGI | > 100 µM |
| CC1(C)CCc2cc3c(cc2O1)OC(C)(C)CC3=O | TGI | > 100 µM |

Next item in the queue.
Problem: Can you look up the measured TGI of N=C1/C(=C/c2ccco2)C(=O)N=C2SC=NN12 for me?
Solution: > 100 µM

----------
Test system: MDA-MB-231 breast
EXPERIMENTAL DETAILS: NCI tumour cell line growth inhibition, 48 h
Overview of reported TGI across a group of compounds:

| COMPOUND | TESTED SYSTEM | TGI |
| --- | --- | --- |
| O=P1(N(CCCl)CCCl)Oc2c(Cl)cc(Cl)c(Cl)c2Cc2c(Cl)c(Cl)cc(Cl)c2O1 | MDA-MB-231 breast | > 100 µM |
| O=C1CC2(CCN(CC3COc4ccccc4O3)CC2)C(=O)N1N1CCCCCC1 (stereo unspecified) | MDA-MB-231 breast | > 100 µM |
| CC1(C)CCCC2(C)C3=C(CCC12)C(=O)OC3 (stereo unspecified) | MDA-MB-231 breast | > 100 µM |
| OC1C2CCC3C2CC(C(O)(c2ccccc2)c2ccccc2)C13 (stereo unspecified) | MDA-MB-231 breast | > 100 µM |

Problem: Quick check: TGI of Nc1nc(=O)c2[nH]cnc2n1O ?
Solution: > 100 µM

Problem: Try COc1ccccc1CN=C1NC(=O)/C(=C/c2ccc3ncccc3c2)S1 next.
Solution: > 25 µM

----------
System: A549 NSCLC
EXPERIMENTAL DETAILS: NCI tumour cell line growth inhibition, 48 h
MEASURED ENDPOINT: TGI

| MOLECULE | MEASURED ENDPOINT | MEASUREMENT |
| --- | --- | --- |
| O=c1[nH]ccc2nc(N3CCC(O)CC3)nc(Nc3ccc(N4CCOCC4)cc3)c12 | TGI | > 100 µM |
| C#CCn1c(=O)c(I)cn(/C(=C\C(=O)OCC)C(=O)OCC)c1=O | TGI | > 100 µM |
| NCc1ccc(O)c(O)c1O | TGI | 63.2 µM |
| C/C(=N\NC(=O)c1cccc(S(=O)(=O)N2CCN(C)CC2)c1)c1cc(Cl)ccc1O | TGI | > 100 µM |
| CC(C)C(C)C(O)C(O)C(C)C1CCC2C3COC(=O)C4CC(O)C(O)CC4(C)C3CCC12C (stereo unspecified) | TGI | > 100 µM |

Problem: Kindly state the measured TGI obtained for CC1(C)[C@H]2CC[C@](C)(C2)[C@]1(S)Cc1ccccn1 with A549 NSCLC.
Solution: > 100 µM

----------
Tested on: OVCAR-4 ovarian
EXPERIMENTAL DETAILS: NCI tumour cell line growth inhibition, 48 h
MEASURED ENDPOINT: TGI

| MOLECULE | TESTED SYSTEM | TGI |
| --- | --- | --- |
| O=C1CC(C(O)C(O)C(O)CO)CC(=O)N1 (stereo not given) | OVCAR-4 ovarian | > 100 µM |
| CC(C)(C)c1cc(O)c2c(c1O)C(=O)CCC2 | OVCAR-4 ovarian | > 100 µM |
| Oc1ccccc1/C=N/Nc1nc2ccccc2s1 | OVCAR-4 ovarian | > 100 µM |
| CCCCCCCCCCCCCCCCCCNc1ccn(C2OC(COP(=O)(O)OCC(COP(=O)(O)OCC3OC(n4cc(C)c(=O)[nH]c4=O)CC3N=[N+]=[N-])OCCCCCCCCCCCCCCCCCC)C(O)C2O)c(=O)n1 (stereo not given) | OVCAR-4 ovarian | > 100 µM |

// switching to the query molecule
Problem: What value of TGI has been reported for the following molecule? COc1ccc(C2CC(c3ccc4ccccc4c3)=NN2/C=C2\SC(=S)N(NC(=O)Cc3ccccc3Nc3c(Cl)cccc3Cl)C2=O)cc1 (stereo not given)
Solution: > 48 µM

----------
System: NCI-H460 lung
EXPERIMENTAL DETAILS: NCI tumour cell line growth inhibition, 48 h
MEASURED ENDPOINT: TGI (µM)
The reply should contain only the number, in µM.

Some compounds with known TGI results, for comparison:
| SMILES CODE | TESTED SYSTEM | TGI, µM |
| --- | --- | --- |
| NCc1ccc(O)c(O)c1O | NCI-H460 lung | 34 |
| [O-]c1ccccc1[C-]=Nc1ccccc1O.[O-]c1ccccc1[C-]=Nc1ccccc1O.[O]=[U]=[O] | NCI-H460 lung | 41.2 |
| ClCCN(CC#CCCCC#CCN(CCCl)CCCl)CCCl | NCI-H460 lung | 16.3 |
| O=C(/C=C/c1ccccc1)Nc1ncc(Cc2ccccc2)s1 | NCI-H460 lung | 5.01 |

For the next question, use this compound.
Problem: Quick check: TGI of N=C(N)SC(c1ccccc1)c1ccccc1 ?
Solution: 37.1

----------
Recorded TGI, one value per entry.
Tested on: SK-MEL-2 melanoma
EXPERIMENTAL DETAILS: NCI tumour cell line growth inhibition, 48 h

| COMPOUND | TGI |
| --- | --- |
| CC(/C=C/c1ccccc1)=N\N=C(C)\C=C\c1ccccc1 | > 100 µM |

Problem: Query: TGI; subject: O=C(Nc1ccc(-n2ccc3c(NC(=O)c4ccccc4)ncnc32)cc1)Nc1ccc(Cl)c(C(F)(F)F)c1
Solution: 5.66 µM

Problem: Can you check C=CC1CC12C(=O)C1OC2(C)C2C(=O)c3c(O)cccc3C(=O)C12 (stereo not given) next?
Solution: > 100 µM

Problem: Query CCCCC1CCCCCCc2[nH]c(/C=C3\N=C(c4ccc[nH]4)C=C3OC)cc21 (stereo not given) next
Solution: < 0.0237 µM

Problem: And then Cc1cccc(NC(N)=S)c1 , what is it?
Solution: > 100 µM

Problem: How about O=S(=O)(Nc1nc2ccccc2nc1Nc1cccc2ccccc12)c1ccccc1 ?
Solution: > 100 µM

Problem: Also Cc1cc(N2CCCCC2)nc(NCc2cc(Nc3ccnc4cc(Cl)ccc34)ccc2F)n1 , if possible.
Solution: 3.59 µM

Problem: COc1c(C(=O)/C(=N/Nc2cccc(Cl)c2)C(C)=O)c(O)c(OC)c2occc12 ?
Solution: > 100 µM

Problem: // query: O=C1C(=Cc2cccc(Cl)c2)N=C(c2ccccc2)N1n1c(-c2ccccc2)nc2ccccc2c1=O
Solution: > 100 µM
